system: Mus musculus; test: In vivo ability to inhibit delayed type hypersensitivity in mouse at a concentration of 100 mg/kg; assay type: functional
endpoint: inhibition in vivo at 100 mg/kg (%)
Numbers only, in %.

Consider the worked cases shown below.
N#C/C(C(=O)Nc1ccc(C(F)(F)F)cn1)=C(/O)C1CC1 | 67
Cc1cc(NC(=O)/C(C#N)=C(\O)C2CC2)ccc1Br | 86
N#C/C(C(=O)Nc1ccc(C(F)(F)F)cc1)=C(/O)C1CCC1 | 4
CN(C(=O)c1ccc(NC(=O)/C(C#N)=C(\O)C2CC2)cc1)c1ccc(Cl)cc1 | -8
N#C/C(C(=O)Nc1ccc(-c2ncco2)cc1)=C(/O)C1CC1 | 17
CC(=O)c1ccc(NC(=O)/C(C#N)=C(\O)C2CC2)cc1 | 32

Dear colleague, could you send me inhibition in vivo at 100 mg/kg for each of the items below? Thanks.
1. N#C/C(C(=O)Nc1ccc(-c2ccccc2)cc1)=C(/O)C1CC1
2. N#C/C(C(=O)Nc1ccc(C(F)(F)F)cc1)=C(/O)C1CCCC1
3. N#C/C(C(=O)Nc1ccc(Oc2ccccc2)cc1)=C(/O)C1CC1
4. N#C/C(C(=O)Nc1ccc(/C=C/c2ccc(Cl)cc2)cc1)=C(/O)C1CC1
5. CN1CCCC1/C(O)=C(\C#N)C(=O)Nc1ccc(C(F)(F)F)cc1 (stereo unspecified)

Output line:
1. 33
2. 58
3. 9
4. 69
5. 10

Sourced from ChEMBL document CHEMBL1129574
